test system: SK-OV-3 ovarian; assay: NCI tumour cell line growth inhibition, 48 h
Measured parameter: GI50

Compound	Measured result
COc1ccc(-c2cc(-c3ccc(OC)c(OC)c3)nc(SCCCC(=O)NO)n2)cc1	1.45 µM

What measured GI50 is associated with `COc1cc(Nc2nc3cc(N)cc(N)c3nc2-c2ccccc2)cc(OC)c1` on SK-OV-3 ovarian? 6.55 µM

Then what about the compound `Cc1ccc2c(c1)nc(C(=O)c1ccco1)c(C(F)(F)F)[n+]2[O-]` ? > 100 µM

Then what about the compound Cc1ccc(C(CN(C)C)C(=O)c2ccccc2)cc1 (centres undefined) ? 14.7 µM
